target: Hypoxia-inducible factor 1-alpha (Homo sapiens, UniProt Q16665); assay: Inhibition of hypoxia-induced HIF1alpha transcriptional activity in human HCT116 cells assessed as compound concentration causing inhibition of transcriptional activity measured after 18 hrs by hypoxia response element-driven dual luciferase reporter gene assay relative to hypoxia control; format: cell-based; settings: HCT-116
Sequence (Q16665 whole entry, looked up): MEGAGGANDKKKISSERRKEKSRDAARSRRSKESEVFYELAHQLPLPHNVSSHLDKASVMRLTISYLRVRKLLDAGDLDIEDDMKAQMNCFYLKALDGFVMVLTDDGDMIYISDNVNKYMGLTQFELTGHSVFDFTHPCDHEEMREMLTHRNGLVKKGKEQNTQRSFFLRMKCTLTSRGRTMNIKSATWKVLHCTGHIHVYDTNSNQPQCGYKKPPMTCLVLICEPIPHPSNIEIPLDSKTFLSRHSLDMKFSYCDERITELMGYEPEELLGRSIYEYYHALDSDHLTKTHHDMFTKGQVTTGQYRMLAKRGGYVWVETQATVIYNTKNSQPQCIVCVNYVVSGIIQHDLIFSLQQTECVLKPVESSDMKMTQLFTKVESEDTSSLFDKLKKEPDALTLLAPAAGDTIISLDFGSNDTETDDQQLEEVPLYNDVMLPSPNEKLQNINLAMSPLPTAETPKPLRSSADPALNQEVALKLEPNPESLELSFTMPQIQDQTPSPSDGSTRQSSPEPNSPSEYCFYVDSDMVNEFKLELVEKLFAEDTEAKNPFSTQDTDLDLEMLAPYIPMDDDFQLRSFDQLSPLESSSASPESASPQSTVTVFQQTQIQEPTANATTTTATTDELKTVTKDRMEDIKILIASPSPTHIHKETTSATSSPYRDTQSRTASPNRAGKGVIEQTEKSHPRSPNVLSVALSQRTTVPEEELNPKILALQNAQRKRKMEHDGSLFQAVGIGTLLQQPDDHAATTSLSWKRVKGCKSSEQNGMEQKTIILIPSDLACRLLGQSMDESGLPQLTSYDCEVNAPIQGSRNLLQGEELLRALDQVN
assay metric: Concentration causing inhibition (µM)

compound=O=C1C2=C(C3=NCCc4c[nH]c1c43)[C@]1(C=C(Br)[C@H](O)C(Br)=C1)CCN2 assay_metric="Concentration causing inhibition" unit_abbrev=µM readout_value=10
compound="O=C1C=C2S[C@H]3C[C@]2(C=C1Br)C1=C(N3)C(=O)c2[nH]cc3c2C1=NCC3 [(+)-DISCORHABDIN B]" assay_metric="Concentration causing inhibition" unit_abbrev=µM readout_value=0.1
compound=O=C1C=C(S[C@H]2[C@H]3C(=O)C=C4S[C@H]5C[C@]42C2=C(N5)C(=O)c4[nH]cc5c4C2=[N+]3CC5)[C@]2(C=C1Br)CCNC1=C2C2=NCCc3c[nH]c(c32)C1=O assay_metric="Concentration causing inhibition" unit_abbrev=µM readout_value=0.1
compound="O=C1C(NC2Cc3cc(Br)c(O)cc3S2)=CC2=NCCc3c[nH]c1c32 (centres undefined) [MAKALUVAMINE F]" assay_metric="Concentration causing inhibition" unit_abbrev=µM readout_value=0.25
